Read-out: serum amyloid A (SAA), SAA1 (gene 6288)
Assay: BSK_CASM3C_SAA: BioMAP Diversity Plus: CASM3C Assay for serum amyloid A (SAA) Biomarker Activity (AID 2283049);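 further: SAA protein level quantified by ELISA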
Settings: primary human coronary artery smooth muscle cells; actives raise or lower the signal
The source made the active and inactive calls. How the source made its calls: active means hit-call score of the fitted dose curve at least 0.9, where 1 is the maximum; inactive means score below 0.9.
Possible outcomes: T (active), F (inactive)

[[record]]
compound = "Cc1cc(Cl)ccc1OCC(=O)O"
assigned_class = "F"

[[record]]
compound = "Cc1ccc(-c2c(Cl)nc(C#N)n2S(=O)(=O)N(C)C)cc1"
assigned_class = "F"

[[record]]
compound = "CC(C)(C)c1ccc(CSc2cnn(C(C)(C)C)c(=O)c2Cl)cc1"
assigned_class = "F"

[[record]]
compound = "O=C(Nc1ccccc1)Nc1ccnc(Cl)c1"
assigned_class = "F"

[[record]]
compound = "O=C(O)COc1nc(Cl)c(Cl)cc1Cl"
assigned_class = "F"

[[record]]
compound = "CCOP(=S)(OCC)SCn1c(=O)oc2cc(Cl)ccc21"
assigned_class = "F"

[[record]]
compound = "COc1nc(C)nc(NC(=O)NS(=O)(=O)c2ccccc2Cl)n1"
assigned_class = "F"

[[record]]
compound = "N#Cc1nn(-c2c(Cl)cc(C(F)(F)F)cc2Cl)c(N)c1S(=O)C(F)(F)F (configuration not stated)"
assigned_class = "F"

[[record]]
compound = "C=CCC1=C(C)[C@@H](OC(=O)[C@@H]2[C@@H](C=C(C)C)C2(C)C)CC1=O"
assigned_class = "F"

[[record]]
compound = "COC(=O)C(C)Oc1ccc(Oc2ccc(Cl)cc2Cl)cc1 (configuration not stated)"
assigned_class = "F"

[[record]]
compound = "COP(=S)(OC)Oc1nc(Cl)c(Cl)cc1Cl"
assigned_class = "F"

[[record]]
compound = "N#CC(CCc1ccc(Cl)cc1)(Cn1cncn1)c1ccccc1 (configuration not stated)"
assigned_class = "F"

[[record]]
compound = "COC(=O)c1ccccc1C(=O)OC"
assigned_class = "F"

[[record]]
compound = "CS/C(C)=N/OC(=O)N(C)SN(C)C(=O)O/N=C(\\C)SC"
assigned_class = "T"

[[record]]
compound = "C#CCOS(=O)OC1CCCCC1Oc1ccc(C(C)(C)C)cc1 (configuration not stated)"
assigned_class = "T"

[[record]]
compound = "CNC(=S)S"
assigned_class = "F"

[[record]]
compound = "CCNc1nc(Cl)nc(NCC)n1"
assigned_class = "F"


----------
Read-out: Tumor necrosis factor receptor superfamily member 6 (Homo sapiens) (UniProt P25445)
Experiment: LTEA_HepaRG_FAS: Life Technologies and Expression Analysis (LTEA) Assay for Fas cell surface death receptor (FAS) using HepaRG (AID 2283447)
Settings: mRNA level, 48 h; actives raise or lower the signal
Active and inactive are the calls of the source. Rule for the calls: active = hit-call score of the fitted dose curve at least 0.9, where 1 is the maximum; inactive = score below 0.9.
Classes used: T (active), F (inactive)

[[record]]
molecule = "COC(=O)C=C(C)OP(=O)(OC)OC"
assigned_class = "F"

[[record]]
molecule = "CON(C)C(=O)Nc1ccc(Cl)c(Cl)c1"
assigned_class = "F"

[[record]]
molecule = "Cc1ccc(-c2c(Cl)nc(C#N)n2S(=O)(=O)N(C)C)cc1"
assigned_class = "F"

[[record]]
molecule = "COc1ccc(C(c2ccc(OC)cc2)C(Cl)(Cl)Cl)cc1"
assigned_class = "F"

[[record]]
molecule = "CCOC(=O)C(Cl)Cc1cc(-n2nc(C)n(C(F)F)c2=O)c(F)cc1Cl (stereo unspecified)"
assigned_class = "F"

[[record]]
molecule = "N#CC(CCc1ccc(Cl)cc1)(Cn1cncn1)c1ccccc1 (stereo unspecified)"
assigned_class = "T"

[[record]]
molecule = "CC(Oc1ccc(Cl)cc1Cl)C(=O)O (stereo unspecified)"
assigned_class = "F"

[[record]]
molecule = "CCOC(=O)CC(SP(=S)(OC)OC)C(=O)OCC (stereo unspecified)"
assigned_class = "F"

[[record]]
molecule = "C=CC1(C)OC(=O)N(c2cc(Cl)cc(Cl)c2)C1=O (stereo unspecified)"
assigned_class = "F"

[[record]]
molecule = "CC1COC(Cn2cncn2)(c2ccc(Oc3ccc(Cl)cc3)cc2Cl)O1 (stereo unspecified)"
assigned_class = "T"

[[record]]
molecule = "CCCCC(CC)COC(=O)c1ccccc1C(=O)OCC(CC)CCCC (stereo unspecified)"
assigned_class = "F"

[[record]]
molecule = "CCCCNC(=O)OCC#CI"
assigned_class = "T"

[[record]]
molecule = "COP(=S)(OC)Oc1nc(Cl)c(Cl)cc1Cl"
assigned_class = "F"

[[record]]
molecule = "COC(=O)C(C)Oc1ccc(Oc2ccc(Cl)cc2Cl)cc1 (stereo unspecified)"
assigned_class = "F"

[[record]]
molecule = "CCOP(=S)(OCC)SCn1c(=O)oc2cc(Cl)ccc21"
assigned_class = "F"

[[record]]
molecule = "CCNc1nc(Cl)nc(NCC)n1"
assigned_class = "F"

[[record]]
molecule = "CCON=C(CC)C1=C(O)CC(c2c(C)cc(C)cc2C)CC1=O (stereo unspecified)"
assigned_class = "F"

[[record]]
molecule = "CN(C)C(=S)SSC(=S)N(C)C"
assigned_class = "F"

[[record]]
molecule = "O=C(Nc1ccccc1)Nc1ccnc(Cl)c1"
assigned_class = "F"

[[record]]
molecule = "CC(C)(C)c1ccc(CSc2cnn(C(C)(C)C)c(=O)c2Cl)cc1"
assigned_class = "T"

[[record]]
molecule = "CCc1nn(C)c(C(=O)NCc2ccc(C(C)(C)C)cc2)c1Cl"
assigned_class = "F"


----------
Read-out: Lipase C (LIPC), LIPC (gene 3990)
Test: LTEA_HepaRG_LIPC: Life Technologies and Expression Analysis (LTEA) Assay for Lipase C (LIPC) using HepaRG (AID 2283514)
Conditions: mRNA level, 48 h; actives raise or lower the signal
The source made the active and inactive calls. Rule for the calls: active = hit-call score of the fitted dose curve at least 0.9, where 1 is the maximum; inactive = score below 0.9.
Outcomes: active, inactive

[[record]]
compound = "CC(C)Oc1cc(-n2nc(C(C)(C)C)oc2=O)c(Cl)cc1Cl"
assigned_class = "active"

[[record]]
compound = "CCCCOC(=O)c1ccccc1C(=O)OCCCC"
assigned_class = "inactive"

[[record]]
compound = "CCCCNC(=O)OCC#CI"
assigned_class = "inactive"

[[record]]
compound = "N#Cc1nn(-c2c(Cl)cc(C(F)(F)F)cc2Cl)c(N)c1S(=O)C(F)(F)F (stereo unspecified)"
assigned_class = "active"

[[record]]
compound = "CCNc1nc(Cl)nc(NCC)n1"
assigned_class = "inactive"

[[record]]
compound = "N#Cc1cc(Br)c(O)c(Br)c1"
assigned_class = "active"

[[record]]
compound = "Oc1ccccc1-c1ccccc1"
assigned_class = "inactive"

[[record]]
compound = "COC(=O)C(C)Oc1ccc(Oc2ccc(Cl)cc2Cl)cc1 (stereo unspecified)"
assigned_class = "inactive"

[[record]]
compound = "CC(Oc1ccc(Cl)cc1Cl)C(=O)O (stereo unspecified)"
assigned_class = "inactive"

[[record]]
compound = "CCOP(=S)(OCC)SCn1c(=O)oc2cc(Cl)ccc21"
assigned_class = "inactive"

[[record]]
compound = "COc1cnc(OC)n2nc(NS(=O)(=O)c3c(OCC(F)F)cccc3C(F)(F)F)nc12"
assigned_class = "inactive"

[[record]]
compound = "CCOC(=O)CC(SP(=S)(OC)OC)C(=O)OCC (stereo unspecified)"
assigned_class = "inactive"

[[record]]
compound = "CNC(=S)S"
assigned_class = "inactive"

[[record]]
compound = "COC(=O)c1ccccc1C(=O)OC"
assigned_class = "inactive"

[[record]]
compound = "O=C(O)COc1nc(Cl)c(Cl)cc1Cl"
assigned_class = "inactive"

[[record]]
compound = "CC(C)C1(C)N=C(c2nc3ccccc3cc2C(=O)O)NC1=O (stereo unspecified)"
assigned_class = "inactive"

[[record]]
compound = "CCCCC(CC)COC(=O)c1ccccc1C(=O)OCC(CC)CCCC (stereo unspecified)"
assigned_class = "inactive"

[[record]]
compound = "O=C(O)c1nc(Cl)ccc1Cl"
assigned_class = "inactive"

[[record]]
compound = "O=C(Nc1ccccc1)Nc1ccnc(Cl)c1"
assigned_class = "active"

[[record]]
compound = "CCOc1cc(Oc2ccc(C(F)(F)F)cc2Cl)ccc1[N+](=O)[O-]"
assigned_class = "active"

[[record]]
compound = "C=CC1(C)OC(=O)N(c2cc(Cl)cc(Cl)c2)C1=O (stereo unspecified)"
assigned_class = "inactive"

[[record]]
compound = "Cc1cc(Cl)ccc1OCC(=O)O"
assigned_class = "inactive"

[[record]]
compound = "CCCN(CCC)c1c([N+](=O)[O-])cc(S(N)(=O)=O)cc1[N+](=O)[O-]"
assigned_class = "inactive"

[[record]]
compound = "CCNc1nc(Cl)nc(NC(C)C)n1"
assigned_class = "inactive"

[[record]]
compound = "COC(=O)N(OC)c1ccccc1COc1ccn(-c2ccc(Cl)cc2)n1"
assigned_class = "active"

[[record]]
compound = "COc1nc(NC(C)C)nc(NC(C)C)n1"
assigned_class = "inactive"

[[record]]
compound = "CCON=C(CC)C1=C(O)CC(c2c(C)cc(C)cc2C)CC1=O (stereo unspecified)"
assigned_class = "inactive"

[[record]]
compound = "CS/C(C)=N/OC(=O)N(C)SN(C)C(=O)O/N=C(\\C)SC"
assigned_class = "inactive"

[[record]]
compound = "CCCCNC(=O)n1c(NC(=O)OC)nc2ccccc21"
assigned_class = "inactive"

[[record]]
compound = "COC(=O)C=C(C)OP(=O)(OC)OC"
assigned_class = "inactive"

[[record]]
compound = "COc1ccc(C(c2ccc(OC)cc2)C(Cl)(Cl)Cl)cc1"
assigned_class = "active"

